- Tested on: HOP-62 NSCLC
- protocol text: NCI tumour cell line growth inhibition, 48 h; in the data active = GI50 below about 0.43 µM; inactive = the rest
Answer with one of the outcomes class 1 = active, class 0 = inactive

Example results:
Nc1cc(N)c2nc(-c3ccccc3)c(Nc3ccc(Cl)c(Cl)c3)nc2c1: class 0
O=C1c2cc(Cl)ccc2S(=O)(=O)c2c(NCCCNCCO)nc3ccccc3c21: class 0
O=C1Nc2c(C(F)(F)F)cccc2[C@]1(c1ccc(O)cc1)c1ccc(OC(F)(F)F)cc1: class 0

Query: Could you check what this test reported for N#Cc1ccc(O)c(C2=NCC(c3cccc(Oc4ccccc4)c3)O2)c1 (centres undefined) ?
Result: class 0

Query: Could you check what this test reported for "CC1=CC(=Nc2ccc(N(CCCl)CCCl)cc2)C=C(C)C1=O" ?
Result: class 0

Query: Could you check what this test reported for "O=C(N/N=C/c1ccccc1O)c1ccccc1Nc1ccnc(C(F)(F)F)c1" ?
Result: class 1

Query: Could you check what this test reported for "CS(=O)(=O)c1ccc([C@H]2O[C@@H](CO)C[C@]2(O)c2ccc(S(C)(=O)=O)cc2)cc1" ?
Result: class 0

Query: Could you check what this test reported for "OCc1c[nH]c2ccccc12" ?
Result: class 0

Query: Could you check what this test reported for "CCOc1cc2c(Cl)ncnc2c(OCC)c1OCC" ?
Result: class 0

----------
Examples of compounds with documented TGI follow.
- Test system: OVCAR-4 ovarian
- protocol text: NCI tumour cell line growth inhibition, 48 h

Some solved entries appear below for comparison.
C=c1c(OC)c(OC)c(O)c2c1=c1cc([N+](=O)[O-])cc(OC)c1=N2: > 100 µM
Cc1cn(C(C)OCCN2C(=O)c3ccccc3C2=O)c(=O)[nH]c1=O (stereo unspecified): > 100 µM
CCNC(=O)C1CCCN1C(=O)C(CCCN=C(N)N)NC(=O)C(CC(C)C)NC(=O)C(Cc1c[nH]c2ccccc12)NC(=O)C(Cc1ccc(O)cc1)NC(=O)C(CO)NC(=O)C(Cc1c[nH]c2ccccc12)NC(=O)C(Cc1cnc[nH]1)NC(=O)C1CCC(=O)N1 (stereo unspecified): > 100 µM
O=C1CCC(=O)N2CCCCN12: > 100 µM
Brc1cc2nn(-c3ccccc3)nc2c2nonc12: > 100 µM
O=C(N/N=C/c1ccccc1O)c1ccccc1Nc1ccnc(C(F)(F)F)c1: > 100 µM
N#Cc1ccc(O)c(C2=NCC(c3cccc(Oc4ccccc4)c3)O2)c1 (stereo unspecified): > 100 µM
CC[C@@H]1CN(C)[C@H]2Cc3c([nH]c4ccccc34)C(=O)C[C@H]1C2C(=O)OC (stereo partly specified): > 31.6 µM
COC(=O)[C@]12CC[C@@H](C)[C@H](C)[C@@H]1C1=CC[C@@H]3[C@@]4(C)C/C(=N\O)[C@H](O)[C@@]5(C)COC(=C45)C[C@@]3(C)[C@]1(C)CC2: 18.6 µM
CS(=O)(=O)c1ccc([C@H]2O[C@@H](CO)C[C@]2(O)c2ccc(S(C)(=O)=O)cc2)cc1: > 100 µM

Query: Kindly indicate its recorded TGI. Item: CC1(CNCc2ccccc2)CC(CCc2ccccc2)N(C(=O)c2ccc([N+](=O)[O-])cc2)C1Cc1ccc(O)cc1 (stereo unspecified)
Result: 28.2 µM

Query: Kindly indicate its recorded TGI. Item: "Clc1ccc(OCc2nnc(CCCCCCCCc3nnc(COc4ccc(Cl)cc4)n3Nc3ccccc3)n2Nc2ccccc2)cc1"
Result: > 100 µM

Query: Kindly indicate its recorded TGI. Item: "CN(C)CCn1c(=O)c2ccc(NCCCN(C)CCCNc3ccc4c(=O)n(CCN(C)C)c(=O)n5c6ccc([N+](=O)[O-])cc6c(=O)c3c45)c3c(=O)c4cc([N+](=O)[O-])ccc4n(c1=O)c23"
Result: 0.0944 µM

Query: Kindly indicate its recorded TGI. Item: CC(=O)OCC(OC(C)=O)C1C[C@H]2O[C@@H]3[C@H](C[C@H]2O1)O[C@@]1(C[C@@H]3C)C[C@H](C)[C@@H]2O[C@]3(C[C@@H]2O1)C[C@H]1O[C@H]2[C@H](C)[C@H]4OC(=O)CC5CC[C@H]6OC7[C@H]8O[C@]9(CC[C@H]%10CC(O)(CO)[C@H](CC[C@H]%11C[C@@H](C)C(O)(CO)C(C[C@@H]4O[C@H]2C[C@H]1O3)O%11)O%10)CC8O[C@@H]7[C@@H](O9)[C@H]6O5 (stereo partly specified)
Result: > 1 µM

Query: Kindly indicate its recorded TGI. Item: CCOC(=O)[C]1([Bi]([CH3])[CH3])N=NC(C(=O)OC)=C1C(=O)OC (stereo unspecified)
Result: > 100 µM

Query: Kindly indicate its recorded TGI. Item: CCOC(=O)C(CC#Cc1ccc(C#CCC(NC(C)=O)C(=O)OCC)cc1)NC(C)=O (stereo unspecified)
Result: > 100 µM

----------
Examples of molecules with documented TGI follow.
- System: NCI-H23 lung
- protocol text: NCI tumour cell line growth inhibition, 48 h

Some solved entries appear below for comparison.
Cc1cc2c(cc1C)[n+](=O)c(C(=O)C/C(=N/NC(=O)CC#N)C(=O)Nc1ccccc1C(F)(F)F)c(C)n2[O-]: > 100 µM
c1ccc(/C(=N/Nc2ccccn2)c2ncccn2)cc1: > 37.6 µM
O=c1[nH]nc(-c2ccccc2)c2[nH]c(-c3ccccc3)cc12: > 100 µM
N#Cc1c(-c2ccc(F)cc2)nc(N/N=C/c2c[nH]c3ccccc23)nc1N1CCOCC1: 92.7 µM
O=C(/N=N/C(=O)OCc1ccccc1)OCc1ccccc1: > 100 µM

Query: Kindly indicate its recorded TGI. Item: CC1=NN(C(=O)Nc2ccccc2)C(=O)C2CCC(=O)N12 (stereo not given)
Result: > 100 µM

Query: Kindly indicate its recorded TGI. Item: NC(=O)C(=O)N/N=C(\CC1(O)C(=O)Nc2ccccc21)c1ccc2ccccc2c1 (stereo not given)
Result: 76.7 µM

Query: Kindly indicate its recorded TGI. Item: "Cn1c2ccccc2c2c(-c3ccccc3)[n+]3ccncc3nc21"
Result: > 100 µM

Query: Kindly indicate its recorded TGI. Item: "CC1(C)C=C(S(=O)(=O)c2ccccc2)Oc2ccccc2O1"
Result: > 100 µM

Query: Kindly indicate its recorded TGI. Item: "O=C1c2cc(Cl)ccc2S(=O)(=O)c2c(NCCCNCCO)nc3ccccc3c21"
Result: 4.4 µM

Query: Kindly indicate its recorded TGI. Item: "COc1ccc(/C=C/CN(C)CCc2ccccc2)cc1OC"
Result: > 100 µM

----------
- System: MOLT-4 leukemia
- protocol text: NCI tumour cell line growth inhibition, 48 h
Examples of compounds with documented TGI follow.

Query: Kindly indicate its recorded TGI. Item: "Nc1ccc(S(=O)(=O)Nc2nc3ccccc3nc2N2CCCCC2)cc1"
Result: > 100 µM

Query: Kindly indicate its recorded TGI. Item: COc1cc(C2NC(=O)c3ccccc3N2)ccc1OCCCCCOc1c(OC)cc(C2=NOC(c3cc(OC)c(OC)c(OC)c3)C2)cc1OC (centres undefined)
Result: > 100 µM

Query: Kindly indicate its recorded TGI. Item: "C/C(CC(=O)Nc1cc(Cl)c(Cl)cc1Cl)=N\NC(N)=O"
Result: > 100 µM

Query: Kindly indicate its recorded TGI. Item: "O=C1/C(=C/c2ccccc2)CNC/C1=C\c1ccccc1"
Result: 3.36 µM

Query: Kindly indicate its recorded TGI. Item: "Oc1ccc(NCc2nc3ccccc3[nH]2)cc1"
Result: > 100 µM

Query: Kindly indicate its recorded TGI. Item: "O=C(N/N=C/c1ccccc1O)c1ccccc1Nc1ccnc(C(F)(F)F)c1"
Result: > 32.3 µM

Query: Kindly indicate its recorded TGI. Item: O=C1C(Cl)N(c2ccccc2[N+](=O)[O-])C1c1c[nH]c2ccccc12 (centres undefined)
Result: > 100 µM

Query: Kindly indicate its recorded TGI. Item: "O=C(Cc1ccccc1)NN1C(=O)/C(=C\c2ccc([N+](=O)[O-])cc2)SC1=Nc1ccccc1"
Result: > 100 µM

Query: Kindly indicate its recorded TGI. Item: "COc1ccc(-c2cc(=O)c3c(OC)c(OC)c(OC)cc3o2)cc1"
Result: > 100 µM

----------
- Test system: HL-60(TB) leukemia
- protocol text: NCI tumour cell line growth inhibition, 48 h
measured quantity: TGI

Some solved entries appear below for comparison.
O=C(O)C(CO)NC(=O)n1c2ccccc2c2ccccc21 (centres undefined): > 100 µM
OCc1c[nH]c2ccccc12: 77.3 µM
O=C(CC1=NCCN1)c1ccccc1: > 750 µM
CCOC(=O)C(CC#Cc1ccc(C#CCC(NC(C)=O)C(=O)OCC)cc1)NC(C)=O (centres undefined): > 100 µM
O=C1NC2OC(CO)C(O)C(O1)C2O (centres undefined): > 100 µM

Query: Kindly indicate its recorded TGI. Item: "O=[N+]([O-])c1ccc(-c2ccc(-c3csc(Nc4ccccn4)n3)o2)cc1"
Result: > 100 µM

Query: Kindly indicate its recorded TGI. Item: COC(=O)C1Cc2c(n(Cc3ccccc3)c3ccccc23)C(CCC(=O)O)N1C(C)C (centres undefined)
Result: > 100 µM

Query: Kindly indicate its recorded TGI. Item: "COc1cc(C2=C(c3ccccc3)COC2=O)cc(OC)c1OC"
Result: 2.14 µM

Query: Kindly indicate its recorded TGI. Item: "C=C1C(=O)O[C@H]2[C@H]1CC/C(Cn1cc(-c3ccc(OC)cc3)nn1)=C\CC[C@@]1(C)O[C@@H]21"
Result: 3.86 µM
